Quick reference for TGI among some compounds
tested on: M14 melanoma; test: NCI tumour cell line growth inhibition, 48 h
Kindly provide the numeric value in µM only, without the unit symbol.

Take a look at these entries with their results.
Exercise: What value of measured TGI is listed for N#Cc1ccc(C#Cc2ccccc2C#CCCCCO)cc1 ?
Solution: 31.5

Exercise: What value of measured TGI is listed for COc1ccc2[nH]c3c(C)c4c(c(C)c3c2c1)CN(C)CC4 ?
Solution: 30.5

Exercise: What value of measured TGI is listed for CC(C)c1ccc2[nH]c(O)c(-c3[nH]c4ccccc4c3N=O)c2c1 ?
Solution: 23.6

New cases:
Exercise: What value of measured TGI is listed for CCCc1cc(=O)c2c(C)c3[nH]c4ccc(Cl)cc4c3c(C)c2[nH]1 ?
Solution: 9.52

----------
Quick reference for TGI among some compounds
system: SF-268 CNS; test: NCI tumour cell line growth inhibition, 48 h

Take a look at these entries with their results.
Exercise: Requested read-out TGI, target or system SF-268 CNS, entry Cn1c(N2NC(=O)C(N=Nc3ccc(S(N)(=O)=O)cc3)C2=O)nc(-c2ccco2)c(C#N)c1=O (stereo not given)
Solution: > 50 µM

Exercise: Requested read-out TGI, target or system SF-268 CNS, entry CN(C)CCCOC(=O)C(c1ccccc1)C1(O)CCSCC1 (stereo not given)
Solution: > 100 µM

New cases:
Exercise: Requested read-out TGI, target or system SF-268 CNS, entry Cc1ccc(C(=O)Nc2ccc(CP(=O)(O)O)cc2CP(=O)(O)O)cc1NC(=O)c1cccc(N)c1
Solution: > 100 µM

Exercise: Requested read-out TGI, target or system SF-268 CNS, entry COc1cc(-c2cc(=O)c3cc4c(cc3[nH]2)OCO4)cc(OC)c1O
Solution: > 10 µM

Exercise: Requested read-out TGI, target or system SF-268 CNS, entry Nc1ccc2nc(-c3ccccn3)c(-c3ccccn3)nc2c1
Solution: > 100 µM

----------
Quick reference for TGI among some compounds
tested on: BT-549 breast; assay: NCI tumour cell line growth inhibition, 48 h

Exercise: What value of measured TGI is listed for COc1cc(O)c(/C=N/N=C(\N)NO)c(OC)c1 ?
Solution: > 10 µM

New cases:
Exercise: What value of measured TGI is listed for CCCCN1C(=O)CC2[C@@H]3CCc4cc(OC(C)=O)ccc4C3CC[C@]2(C)C1=O (stereo partly drawn) ?
Solution: > 10 µM

Exercise: What value of measured TGI is listed for CC1(O)CC(C(F)(F)F)(C(F)(F)F)OC1=O (stereo not drawn) ?
Solution: > 10 µM

----------
Quick reference for TGI among some compounds
test system: OVCAR-5 ovarian; experiment: NCI tumour cell line growth inhibition, 48 h

Take a look at these entries with their results.
Exercise: What value of measured TGI is listed for CC1CCC2(C(=O)O)CCC3(C)C(=CCC4C5(C)CC(O)C(O)C(C)(CO)C5C(O)CC43C)C2C1C (stereo unspecified) ?
Solution: > 100 µM

Exercise: What value of measured TGI is listed for Nc1ccn(C2O[C@H](CO)[C@@H](O)[C@@H]2O)c(=O)n1 (stereo partly specified) ?
Solution: > 100 µM

Exercise: What value of measured TGI is listed for Cc1ccc2c(c1)C(=O)/C(=C/c1ncc([N+](=O)[O-])n1C)O2 ?
Solution: > 27 µM

New cases:
Exercise: What value of measured TGI is listed for CC[C@]1(Cc2ccc(OC)c(OC)c2)CN(S(=O)(=O)c2ccc(C)cc2)C[C@@H]1OC(C)=O ?
Solution: > 100 µM

Exercise: What value of measured TGI is listed for CC1(O)CC(C(F)(F)F)(C(F)(F)F)OC1=O (stereo unspecified) ?
Solution: > 10 µM

Exercise: What value of measured TGI is listed for OC1C2[C@@H](O)CCCN2C[C@@H](O)[C@H]1O (stereo partly specified) ?
Solution: > 100 µM

----------
test system: HCC-2998 colon; experiment: NCI tumour cell line growth inhibition, 48 h
property.name: TGI

Take a look at these entries with their results.
Exercise: Requested read-out TGI, target or system HCC-2998 colon, entry CSc1nc(Cl)c2c(n1)Sc1nc3cc4c(cc3n1C2O)OCCO4 (configuration not stated)
Solution: 12.1 µM

Exercise: Requested read-out TGI, target or system HCC-2998 colon, entry Nc1ccn(C2O[C@H](CO)[C@@H](O)[C@@H]2O)c(=O)n1 (some centres not stated)
Solution: > 100 µM

Proceeding to the next compound to report its TGI.
Exercise: Requested read-out TGI, target or system HCC-2998 colon, entry COC(=O)C1C(C(=O)OC)N(Cc2ccccc2)C(=O)N1Cc1ccccc1 (configuration not stated)
Solution: > 100 µM

----------
test system: MALME-3M melanoma; assay: NCI tumour cell line growth inhibition, 48 h
property.name: GI50

Take a look at these entries with their results.
Exercise: What value of measured GI50 is listed for COc1cc2c3c(n(C)c(=O)c2cc1OC)-c1cc2c(cc1/C3=C\CCCN1C(=O)c3ccccc3C1=O)OCO2 ?
Solution: > 40 µM

Exercise: What value of measured GI50 is listed for Cc1cc(I)cc(CNCCCN2CCSCC2)c1O ?
Solution: 17.3 µM

Proceeding to the next compound to report its GI50.
Exercise: What value of measured GI50 is listed for CCCCC/C(C=C(C#N)C#N)=C/c1ccccc1 ?
Solution: 3.11 µM

----------
system: TK-10 renal; assay: NCI tumour cell line growth inhibition, 48 h
property.name: TGI

Exercise: What value of measured TGI is listed for CCOc1ccc2c(c1)[n+]([O-])c(S(=O)(=O)c1ccc(C)cc1)c(N)[n+]2[O-] ?
Solution: > 100 µM

Exercise: What value of measured TGI is listed for O=C(Nc1ccc(Br)cc1)c1c(-c2ccccc2)c2ccc(O)cc2oc1=O ?
Solution: > 10 µM

Exercise: What value of measured TGI is listed for Cn1cc2ccccc2c1-c1nc(N)nc(F)n1 ?
Solution: > 100 µM

Exercise: What value of measured TGI is listed for Oc1ccc(/C=C/c2cc(O)cc(O)c2)cc1 ?
Solution: > 100 µM

Exercise: What value of measured TGI is listed for c1ccc2c(c1)OC(N1CCCC1)c1cnc(N3CCCC3)nc1-2 (stereo unspecified) ?
Solution: > 100 µM

Exercise: What value of measured TGI is listed for CC1=C2C(=O)NN=C2CCN1c1ccc(Br)cc1 ?
Solution: > 100 µM

Exercise: What value of measured TGI is listed for N#CSCC1CC(O)(c2ccccc2)C(c2ccccc2)C(c2ccc(Cl)cc2)O1 (stereo unspecified) ?
Solution: 4.2 µM

Exercise: What value of measured TGI is listed for CC1(O)CC(C(F)(F)F)(C(F)(F)F)OC1=O (stereo unspecified) ?
Solution: > 10 µM

Exercise: What value of measured TGI is listed for COC(=O)c1cc2c3ccccc3[nH]c2c2ncccc12 ?
Solution: > 100 µM

Exercise: What value of measured TGI is listed for Cc1cc(N(CCOS(C)(=O)=O)CCOS(C)(=O)=O)ccc1C=Nc1ccc(-c2nc(Cc3ccccc3)sc2C)cc1 ?
Solution: 33.9 µM

New cases:
Exercise: What value of measured TGI is listed for CCCCCCCCCCCCCCCCCCNc1ccn(C2OC(COP(=O)(O)OCC3OC(n4ccc(NC(=O)CCCCCCCCCCCCCCCCC)nc4=O)C(OC(C)=O)C3OC(C)=O)C(OC(C)=O)C2OC(C)=O)c(=O)n1 (stereo unspecified) ?
Solution: > 100 µM

Exercise: What value of measured TGI is listed for COC(=O)CC(C(C(=O)OC)C(=O)OC)N1C(=O)OCC1c1ccccc1 (stereo unspecified) ?
Solution: > 100 µM

Exercise: What value of measured TGI is listed for CCc1c(Oc2ccc(C(C)=O)cc2)c2ccccc2[nH]c1=O ?
Solution: 28.6 µM

Exercise: What value of measured TGI is listed for COc1ccc(-n2c(=O)c3[nH]cnc3n(-c3ccc(OC)cc3)c2=S)cc1 ?
Solution: > 100 µM

Exercise: What value of measured TGI is listed for CC(C)CC(=O)[O-].CC(C)CC(=O)[O-].N.N.N.N.[Co+3].[O-][Cl+3]([O-])([O-])[O-] ?
Solution: > 100 µM

Exercise: What value of measured TGI is listed for O=C(O)CC/C(=N\Nc1nsc2ccccc12)c1ccccc1 ?
Solution: > 100 µM

Exercise: What value of measured TGI is listed for O=C(NNC(=S)Nc1ccc(Cl)cc1)c1cc(-c2ccccc2)nc2ccccc12 ?
Solution: 21.7 µM

Exercise: What value of measured TGI is listed for O=C(O)c1c2c(cc3c1CC1(Cc4ccccc4C1)C3)CCC2 ?
Solution: > 100 µM

Exercise: What value of measured TGI is listed for CCCc1cc(=O)c2c(C)c3[nH]c4ccc(Cl)cc4c3c(C)c2[nH]1 ?
Solution: 4.06 µM

Exercise: What value of measured TGI is listed for COCOC1/C=C/CCCC#C[C@H](C)C(=O)CC1 (stereo partly specified) ?
Solution: 28.6 µM

Exercise: What value of measured TGI is listed for CCN1CC2=C(NC(=S)NC2c2ccc(Cl)cc2)/C(=C/c2ccc(Cl)cc2)C1 (stereo unspecified) ?
Solution: > 100 µM
